target: Alpha-2C adrenergic receptor (Homo sapiens, UniProt P18825); type: functional; note: assay procedure not described here
Sequence (P18825 whole entry): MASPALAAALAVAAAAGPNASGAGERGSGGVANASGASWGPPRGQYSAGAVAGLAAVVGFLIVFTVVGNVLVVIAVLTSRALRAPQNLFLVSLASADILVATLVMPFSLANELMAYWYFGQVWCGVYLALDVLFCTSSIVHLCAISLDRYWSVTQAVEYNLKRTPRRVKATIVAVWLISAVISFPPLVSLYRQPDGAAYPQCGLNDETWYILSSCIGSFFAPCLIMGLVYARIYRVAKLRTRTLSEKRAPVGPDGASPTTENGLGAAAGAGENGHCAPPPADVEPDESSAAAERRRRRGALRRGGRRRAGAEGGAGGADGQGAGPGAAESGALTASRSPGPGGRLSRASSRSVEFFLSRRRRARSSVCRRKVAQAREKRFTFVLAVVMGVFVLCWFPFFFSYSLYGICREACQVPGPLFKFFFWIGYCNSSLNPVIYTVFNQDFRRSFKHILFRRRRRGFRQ
Binary call on AC50 with cut-off 6 µM: strictly below means label 1, and equality or higher means label 0.

Compound: C#CCN(C)Cc1ccccc1 [PARGYLINE]
Discrete Label: label 0
//
Compound: Cc1c(C)c2c(c(C)c1O)CCC(C)(COc1ccc(CC3SC(=O)NC3=O)cc1)O2 (centres undefined) [TROGLITAZONE]
Discrete Label: label 0
//
Compound: CC(=O)OCC(=O)[C@@]1(O)CC[C@H]2[C@@H]3CCC4=CC(=O)CC[C@]4(C)[C@@]3(F)[C@@H](O)C[C@@]21C [FLUDROCORTISONE ACETATE]
Discrete Label: label 0
//
Compound: CN1CCC(=C2c3ccccc3CC(=O)c3sccc32)CC1 [KETOTIFEN]
Discrete Label: label 0
//
Compound: CN1CC2c3ccccc3Oc3ccc(Cl)cc3C2C1 (centres undefined) [ASENAPINE]
Discrete Label: label 1
//
Compound: Oc1cc(Cl)ccc1Oc1ccc(Cl)cc1Cl [TRICLOSAN]
Discrete Label: label 0

[Q] Answer whether the compound O=C1[C@@H]2[C@H]3CC[C@H](C3)[C@@H]2C(=O)N1C[C@@H]1CCCC[C@H]1CN1CCN(c2nsc3ccccc23)CC1 [LURASIDONE] has AC50 strictly less than 6 µM
[A] label 1

[Q] Answer whether the compound CCc1ccc(C(=O)C(C)CN2CCCCC2)cc1 (centres undefined) [EPERISONE] has AC50 strictly less than 6 µM
[A] label 1

[Q] Answer whether the compound CC(C)NCC(O)COc1ccc(CC(N)=O)cc1 (centres undefined) [ATENOLOL] has AC50 strictly less than 6 µM
[A] label 0

====

target: UniProtKB P28223; type: functional, cell-based
Sequence (P28223 whole entry): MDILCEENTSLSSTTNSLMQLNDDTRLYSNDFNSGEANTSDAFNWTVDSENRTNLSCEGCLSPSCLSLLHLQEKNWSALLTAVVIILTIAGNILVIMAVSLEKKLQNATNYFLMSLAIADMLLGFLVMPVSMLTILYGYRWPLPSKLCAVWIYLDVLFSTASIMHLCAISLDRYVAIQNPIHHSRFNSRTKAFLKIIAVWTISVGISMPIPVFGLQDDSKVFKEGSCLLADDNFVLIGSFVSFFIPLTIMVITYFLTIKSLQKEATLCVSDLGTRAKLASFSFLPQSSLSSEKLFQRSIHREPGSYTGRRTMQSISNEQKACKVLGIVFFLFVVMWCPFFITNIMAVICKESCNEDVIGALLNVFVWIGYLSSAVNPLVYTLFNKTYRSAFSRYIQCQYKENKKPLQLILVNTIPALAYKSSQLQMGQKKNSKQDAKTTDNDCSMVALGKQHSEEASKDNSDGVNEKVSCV
Reported Metric: AC50

For orientation, consider the following solved cases.
Molecule: C[C@H](CCC(=O)O)[C@H]1CC[C@H]2[C@@H]3[C@H](O)C[C@@H]4C[C@H](O)CC[C@]4(C)[C@H]3CC[C@]12C
Tested Target: UniProtKB P28223
AC50: > 30 µM
//
Molecule: CN(C)CCOC(=O)C(c1ccccc1)C1(O)CCCC1 (stereo not drawn) [CYCLOPENTOLATE]
Tested Target: UniProtKB P28223
AC50: > 10 µM
//
Molecule: COC(=O)[C@H]1[C@H]2C[C@@H]3c4[nH]c5ccccc5c4CCN3C[C@H]2C[C@@H](OC(=O)c2cc(OC)c(OC)c(OC)c2)[C@@H]1OC
Tested Target: UniProtKB P28223
AC50: > 10 µM
//
Molecule: Nc1c2c(nc3ccccc13)CCCC2O (stereo not drawn)
Tested Target: UniProtKB P28223
AC50: > 30 µM
//
Molecule: O=C(O)c1nn(Cc2ccc(Cl)cc2Cl)c2ccccc12
Tested Target: UniProtKB P28223
AC50: > 30 µM

Okay, here is my list. What is AC50 for each of these?
1. CC[N+](CC)(CCNC(=O)C(=O)NCC[N+](CC)(CC)Cc1ccccc1Cl)Cc1ccccc1Cl
2. CC1=C(C(=O)O)N2C(=O)[C@@H](NC(=O)[C@H](N)C3=CCC=CC3)[C@H]2SC1
3. C[C@@H](O)[C@H]1C(=O)N2C(C(=O)O)=C(SCCN=CN)C[C@H]12 [IMIPENEM ANHYDROUS]

[A]
> 30 µM
> 30 µM
> 300 µM

====

Assignment: determine reported AC50 for the given compounds.
biological target: Adenosine receptor A3 (Homo sapiens, UniProt P0DMS8); note: assay procedure not described here
Sequence (P0DMS8 whole entry): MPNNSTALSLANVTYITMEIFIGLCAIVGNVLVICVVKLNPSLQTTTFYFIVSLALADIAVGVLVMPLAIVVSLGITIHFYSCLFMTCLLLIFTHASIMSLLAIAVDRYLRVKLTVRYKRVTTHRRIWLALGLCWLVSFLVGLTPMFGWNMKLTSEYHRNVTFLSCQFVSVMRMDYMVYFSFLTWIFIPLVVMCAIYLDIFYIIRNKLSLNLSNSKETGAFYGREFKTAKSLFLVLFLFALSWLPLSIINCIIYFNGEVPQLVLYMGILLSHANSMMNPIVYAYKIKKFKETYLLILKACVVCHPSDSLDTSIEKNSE

For orientation, consider the following solved cases.
Compound: C[C@@H](O)[C@H]1C(=O)N2C(C(=O)O)=C(SCCN=CN)C[C@H]12 [IMIPENEM ANHYDROUS]
AC50: 180 µM
--
Compound: CN(C)CCOCC(=O)NC12CC3CC(CC(C3)C1)C2
AC50: > 30 µM
--
Compound: CN(C)CCC(O)(c1ccccc1)c1ccccc1Cl (centres undefined)
AC50: > 10 µM
--
Compound: O=C1[C@@H]2[C@H]3CC[C@H](C3)[C@@H]2C(=O)N1C[C@@H]1CCCC[C@H]1CN1CCN(c2nsc3ccccc23)CC1
AC50: 9.9 µM
--
Compound: CN(C)CCCC1(c2ccc(F)cc2)OCc2cc(C#N)ccc21 (centres undefined)
AC50: > 30 µM
--
Compound: Nc1ccc(S(=O)(=O)Nc2ncccn2)cc1
AC50: > 10 µM
--
Compound: CCCCCCOC(=O)NC(=N)c1ccc(NCc2nc3cc(C(=O)N(CCC(=O)OCC)c4ccccn4)ccc3n2C)cc1 [DABIGATRAN ETEXILATE]
AC50: 11 µM
--
Compound: CC[N+](CC)(CCNC(=O)C(=O)NCC[N+](CC)(CC)Cc1ccccc1Cl)Cc1ccccc1Cl
AC50: > 30 µM

Okay, here is my list. What is AC50 for each of these?
1. O=c1[nH]cc(F)c(=O)[nH]1
2. CCC(NC(C)C)C(O)c1ccc(O)c(O)c1 (centres undefined)
3. CN(C)[C@@H]1C(O)=C(C(=O)NCN2CCCC2)C(=O)[C@@]2(O)C(O)=C3C(=O)c4c(O)cccc4[C@@](C)(O)[C@H]3C[C@@H]12
4. O=C(O)CCCC[C@@H]1SC[C@@H]2NC(=O)N[C@@H]21

[A]
["> 30 µM", "> 30 µM", "> 10 µM", "> 10 µM"]

Okay, here is my list. What is AC50 for each of these?
1. NCCCCCC(=O)O
2. C[C@H](Cn1cnc2c(N)ncnc21)OCP(=O)(O)O [TENOFOVIR ANHYDROUS]

[A]
1: > 10 µM; 2: > 30 µM

Okay, here is my list. What is AC50 for each of these?
1. CCCO[C@H]1[C@@H]([C@@H](COCc2ccc(Cl)cc2)OCc2ccc(Cl)cc2)OC(OCC)[C@@H]1O (some centres undefined) [CLOBENOSIDE]
2. CCC(=O)[C@@]1(C)[C@H](C)C[C@H]2[C@@H]3CCC4=CC(=O)C=C[C@]4(C)[C@H]3[C@@H](O)C[C@@]21C [RIMEXOLONE]
3. CN(Cc1ccc(C(C)(C)C)cc1)Cc1cccc2ccccc12
4. OCC(O)COc1ccc(Cl)cc1 (centres undefined)
5. NCCCNCCSP(=O)(O)O
6. Cc1nnc2n1-c1ccc(Cl)cc1C(c1ccccc1)=NC2
7. C[C@]12CCC(=O)C=C1CC[C@H]1[C@@H]3CC[C@](O)(C(=O)CO)[C@@]3(C)C[C@H](O)[C@@]12F

[A]
1. 20 µM
2. > 10 µM
3. > 10 µM
4. > 10 µM
5. > 30 µM
6. > 30 µM
7. > 30 µM

====

target: Voltage-dependent L-type calcium channel subunit alpha-1C (Rattus norvegicus); format: functional; note: assay procedure not described here
Sequence (P22002 whole entry): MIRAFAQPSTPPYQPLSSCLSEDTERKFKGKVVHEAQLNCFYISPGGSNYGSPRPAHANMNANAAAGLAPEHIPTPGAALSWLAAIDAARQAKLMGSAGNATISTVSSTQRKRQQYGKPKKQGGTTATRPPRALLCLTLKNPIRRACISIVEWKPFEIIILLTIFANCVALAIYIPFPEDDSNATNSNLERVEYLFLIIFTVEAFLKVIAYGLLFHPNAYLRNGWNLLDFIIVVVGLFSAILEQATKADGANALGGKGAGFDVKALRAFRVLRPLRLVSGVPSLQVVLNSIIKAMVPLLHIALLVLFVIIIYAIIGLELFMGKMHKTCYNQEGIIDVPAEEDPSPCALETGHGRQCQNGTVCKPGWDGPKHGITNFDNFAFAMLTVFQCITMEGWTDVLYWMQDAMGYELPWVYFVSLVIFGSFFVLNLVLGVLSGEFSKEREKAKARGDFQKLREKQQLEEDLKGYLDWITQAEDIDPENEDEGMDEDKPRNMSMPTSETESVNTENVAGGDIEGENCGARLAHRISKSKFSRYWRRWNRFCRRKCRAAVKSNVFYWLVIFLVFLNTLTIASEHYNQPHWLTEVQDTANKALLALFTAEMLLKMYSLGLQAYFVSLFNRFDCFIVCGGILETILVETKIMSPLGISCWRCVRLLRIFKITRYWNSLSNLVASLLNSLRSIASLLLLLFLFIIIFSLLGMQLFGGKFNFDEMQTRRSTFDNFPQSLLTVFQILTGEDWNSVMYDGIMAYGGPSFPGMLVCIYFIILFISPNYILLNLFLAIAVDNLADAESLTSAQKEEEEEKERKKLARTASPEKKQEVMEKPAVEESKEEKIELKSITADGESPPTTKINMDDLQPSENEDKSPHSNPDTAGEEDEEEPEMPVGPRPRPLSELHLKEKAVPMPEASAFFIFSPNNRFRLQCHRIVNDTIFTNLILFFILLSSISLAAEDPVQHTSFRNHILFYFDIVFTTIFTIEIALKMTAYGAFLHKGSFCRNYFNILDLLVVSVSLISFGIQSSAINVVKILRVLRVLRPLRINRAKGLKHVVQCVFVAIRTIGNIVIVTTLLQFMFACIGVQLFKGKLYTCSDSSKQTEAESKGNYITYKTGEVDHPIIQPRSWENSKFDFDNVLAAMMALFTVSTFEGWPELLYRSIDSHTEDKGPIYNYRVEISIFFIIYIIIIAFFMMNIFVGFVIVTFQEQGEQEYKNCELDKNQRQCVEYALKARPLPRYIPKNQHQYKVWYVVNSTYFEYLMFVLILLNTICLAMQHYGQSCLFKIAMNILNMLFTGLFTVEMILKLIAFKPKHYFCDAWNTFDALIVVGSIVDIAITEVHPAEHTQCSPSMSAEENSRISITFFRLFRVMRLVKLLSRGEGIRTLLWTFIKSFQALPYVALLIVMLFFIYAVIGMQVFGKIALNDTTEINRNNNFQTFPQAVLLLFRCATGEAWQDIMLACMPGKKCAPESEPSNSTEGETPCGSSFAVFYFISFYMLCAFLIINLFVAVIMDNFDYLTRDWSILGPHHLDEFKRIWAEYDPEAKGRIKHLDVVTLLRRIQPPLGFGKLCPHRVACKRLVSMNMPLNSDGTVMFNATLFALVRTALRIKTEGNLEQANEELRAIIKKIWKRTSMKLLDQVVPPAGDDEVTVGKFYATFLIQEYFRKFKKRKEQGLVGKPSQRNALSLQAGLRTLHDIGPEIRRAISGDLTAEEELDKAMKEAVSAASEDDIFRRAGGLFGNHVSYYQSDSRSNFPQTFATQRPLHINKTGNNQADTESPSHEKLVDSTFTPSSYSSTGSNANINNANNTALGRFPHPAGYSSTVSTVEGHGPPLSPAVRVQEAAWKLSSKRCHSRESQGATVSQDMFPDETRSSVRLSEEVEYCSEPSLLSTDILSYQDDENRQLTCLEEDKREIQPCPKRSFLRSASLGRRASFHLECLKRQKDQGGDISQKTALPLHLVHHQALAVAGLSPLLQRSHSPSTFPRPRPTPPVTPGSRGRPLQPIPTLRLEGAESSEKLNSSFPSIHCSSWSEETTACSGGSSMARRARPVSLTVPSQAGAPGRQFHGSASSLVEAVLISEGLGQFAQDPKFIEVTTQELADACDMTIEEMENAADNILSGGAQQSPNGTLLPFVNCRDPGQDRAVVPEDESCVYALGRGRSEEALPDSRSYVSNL
Reported Metric: AC50

For orientation, consider the following solved cases.
Compound: N=C(N)NC(=O)Cc1c(Cl)cccc1Cl
AC50: > 30 µM

Compound: C[C@]12CCC(=O)C=C1[C@@H]1C[C@@H]1[C@H]1[C@@H]3[C@@H]4C[C@@H]4[C@@]4(CCC(=O)O4)[C@@]3(C)CC[C@@H]12
AC50: > 30 µM

Compound: CN(C)CCOC(=O)C(c1ccccc1)C1(O)CCCC1 (centres undefined) [CYCLOPENTOLATE]
AC50: > 10 µM

Compound: CN(C)CCOCC(=O)NC12CC3CC(CC(C3)C1)C2
AC50: > 30 µM

Okay, here is my list. What is AC50 for each of these?
1. CCCCOC(=O)c1ccc(N)cc1
2. CC(C)(C)NCC(O)COc1cccc2c1CC(O)C(O)C2 (centres undefined)
3. CCN(CC)CCCN(c1ccccc1)C1Cc2ccccc2C1
4. CC1CC(OC(=O)C(O)c2ccccc2)CC(C)(C)C1 (centres undefined) [CYCLANDELATE]

[A]
1: > 30 µM; 2: > 10 µM; 3: > 10 µM; 4: > 10 µM

====

Read-out record for Melanocortin receptor 3 (Homo sapiens, UniProt P41968): AC50

Molecule: COc1nc(C)nc(Cl)c1N=C1NCCN1 [MOXONIDINE]
Reported Metric: AC50
Measurement: > 30 µM

Molecule: CC[N+](CC)(CCNC(=O)C(=O)NCC[N+](CC)(CC)Cc1ccccc1Cl)Cc1ccccc1Cl [AMBENONIUM]
Reported Metric: AC50
Measurement: > 30 µM

Molecule: CN(C)CCN(Cc1ccccc1)c1ccccn1 [TRIPELENNAMINE]
Reported Metric: AC50
Measurement: > 10 µM

Molecule: CN(C)CCOC(c1ccc(Cl)cc1)c1ccccn1 (centres undefined) [CARBINOXAMINE]
Reported Metric: AC50
Measurement: > 30 µM

Molecule: CCOC(=O)C1=C(C)NC(C)=C(C(=O)OC)C1c1cccc(Cl)c1Cl (centres undefined) [FELODIPINE]
Reported Metric: AC50
Measurement: > 30 µM

Okay, here is my list. What is AC50 for each of these?
1. CC(=O)OCC1=C(C(=O)O)N2C(=O)[C@@H](NC(=O)CSc3ccncc3)[C@H]2SC1 [CEPHAPIRIN]
2. CC(=O)Oc1cccc2c1C(=O)c1c(OC(C)=O)cc(C(=O)O)cc1C2=O [DIACEREIN]

[A]
> 10 µM
> 30 µM

Okay, here is my list. What is AC50 for each of these?
1. N=C(N)NC(=O)c1nc(Cl)c(N)nc1N [AMILORIDE]
2. N=C(N)NC(=O)Cc1c(Cl)cccc1Cl [GUANFACINE]

[A]
1. > 30 µM
2. > 30 µM

Attribution: ChEMBL document CHEMBL5291721
